Test system: PRMT1 (protein arginine N-methyltransferase 1)
assaySummary: small molecules binding arginine methyltransferase PRMT1 – biochemical, small-molecule microarray, 635 nm fluorescence, primary screen (AID 1088);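 note: binding of Prmt1 protein to compounds spotted on small-molecule microarray slides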
cond: higher = more signal
observable: composite z-score
One number for each entry.

Please give composite z-score for each item listed below.
1. COC(=O)C1=CC(CCCO)=CC(c2cccs2)N(Cc2cccc(OC(F)(F)F)c2)C=C1C(=O)OC (stereo unspecified)
2. NC(=O)NCC#Cc1ccc2c(c1)[C@]1(C(=O)N2)[C@H](c2ccccc2OCCO)N2[C@H](c3ccccc3)[C@H](c3ccccc3)OC(=O)[C@H]2[C@@H]1C(=O)O
3. CC(C)c1ccc(NN2C(C(O)c3ccc(C#N)cc3)C=CC3C(=O)N(c4ccccc4)C(=O)C32)cc1 (stereo unspecified)
4. COCCOC(=O)N1C(=O)[C@@]2(c3cc(C#CC4(O)CCCCCC4)ccc31)[C@H](C(=O)N1CCc3cc(OC)c(OC)cc3C1)[C@H]1C(=O)O[C@H](c3ccccc3)[C@H](c3ccccc3)N1[C@@H]2c1ccc(OCCO)cc1
5. [N-]=[N+]=Nc1ccccc1C[C@@]1(C(N)=O)N=C(c2ccc(OCCCO)cc2)O[C@@H]1c1ccccc1N=[N+]=[N-]
6. COC(=O)[C@@]1(Cc2ccc(F)cc2)[C@H]2c3cc(C(=O)N4CCCC4)n(Cc4ccc(C)c(F)c4F)c3C[C@H]2CN1C(=O)c1ccccc1

A:
[1.57, 0.507, 1.54, 1.54, 0.319, -1.69]

###

assaySummary: hepatitis C replication reporter changes, two-sided – Huh7 cells, luciferase reporter, HCV replication inhibitor project, primary screen (AID 1109);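 note: huh7 hepatoma cells harbouring a luciferase neomycin HCV replicon reporter; luciferase luminescence as measure of HCV replicon replication; test concentration not given here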
cond: Huh7 HCV replicon luciferase reporter, 48 h; higher = more signal
If the reported z-score equals or exceeds -0.3, assign Fulfilled. If not, assign Not fulfilled.

Solved entries (count: 2):
NC(=O)[C@@]1(Cc2ccccc2)COC(c2ccc(OCCCO)cc2)=N1 = Fulfilled
COc1ccc([Si](C)(C)[C@@H]2[C@@H](CCO)O[C@]3(C(=O)N(Cc4cccc(NC(=O)[C@H](C)O)c4)c4ccccc43)[C@H]2C)cc1 = Not fulfilled

Q: Is reported z-score greater than or equal to -0.3 here: COC(=O)[C@@]1(Cc2ccc(F)cc2)[C@H]2c3cc(C(=O)N(C)C)n(CCc4ccc(OC)c(Br)c4)c3C[C@H]2CN1C(=O)c1ccccc1
A: Not fulfilled

Q: Is reported z-score greater than or equal to -0.3 here: COCCOC(=O)N1C(=O)[C@@]2(c3cc(C#CC4(O)CCCCCC4)ccc31)[C@H](C(=O)Nc1nc3ccccc3s1)[C@H]1C(=O)O[C@H](c3ccccc3)[C@H](c3ccccc3)N1[C@@H]2c1ccc(O)cc1
A: Not fulfilled

Q: Is reported z-score greater than or equal to -0.3 here: COc1ccc([C@H]2OC[C@@H]3C[C@H](Cc4ccccc4)C(=O)N32)cc1
A: Not fulfilled

Q: Is reported z-score greater than or equal to -0.3 here: NCCCCCCNC(=O)[C@@H]1C[C@@H]2C(=O)N[C@@H](CCCCN)C(=O)N2[C@@H]1c1ccc(O)cc1
A: Not fulfilled

Q: Is reported z-score greater than or equal to -0.3 here: CC(=O)NCCCC[C@@H]1NC(=O)[C@@H]2C[C@H](C(=O)NCCCCCN)[C@H](c3cccc(OCCO)c3)N2C1=O
A: Fulfilled

###

assaySummary: Pseudomonas biofilm growth suppression – PAO1 strain, BacTiter-Glo luminescence, LB-PBS, primary screen (AID 1144)
cond: P. aeruginosa PAO1 biofilm, 12 h, higher = more signal
Activity calls are given as the source filed them. How the calls were made is not given here.
observable: z-score

COC(=O)C1=CC(CCCO)=CC(c2cccs2)N(C)C=C1C(=O)OC (stereo unspecified) = 0.321 (inactive)
O=C1C2C=CC(C(O)c3ccco3)N(Nc3ccccc3F)C2C(=O)N1c1ccccc1 (stereo unspecified) = -0.853 (inactive)

Please give z-score for each item listed below.
1. COCC(=C=CC[C@H](O)c1ccccc1OCCO)C[C@H](O)c1ccccn1
2. CO[C@H]1O[C@H](CO)[C@@H](OC(=O)CCc2ccccc2)[C@@H]2OC(=O)[C@@H](Cc3ccccc3)C/C=C/C[C@H](Cc3ccccc3)C(=O)O[C@@H]12
3. CC(C)[Si]1(C(C)C)OCc2cc(C3CC3)nc(-c3ccc(Oc4ccccc4)cc3)c21
4. COC(=O)[C@@]1(Cc2ccc(F)cc2)[C@H]2c3cc(C(=O)N4CCCC4)n(Cc4ccc(C)c(F)c4F)c3C[C@H]2CN1C(=O)c1ccccc1
5. [N-]=[N+]=Nc1ccccc1C[C@]1(C(=O)N2CCOCC2)COC(c2ccc(OCCCO)cc2)=N1
6. C=CCC(OC(C)=O)[C@@H]1[C@@H](N(Cc2ccc(-c3cccc(C(F)(F)F)c3)o2)C(=O)Cc2ccc(OC)cc2)c2cc(OCCCO)ccc2N1C(=O)c1ccc(-c2ccccc2)cc1 (stereo partly specified)
7. O=C(O)[C@@H]1C[C@@H]2C(=O)N3CCC[C@H]3C(=O)N2[C@@H]1c1ccc(O)cc1
8. CC(C)[Si]1(C(C)C)OCc2cc(-c3ccc(-c4ccc(Cl)c(Cl)c4)o3)nc(-c3ccccc3)c21

A:
1: -0.214 (inactive); 2: -0.605 (inactive); 3: -0.823 (inactive); 4: -0.298 (inactive); 5: -0.33 (inactive); 6: 0.198 (inactive); 7: 0.235 (inactive); 8: -0.543 (inactive)

Please give z-score for each item listed below.
1. COCCOC(=O)N1C(=O)[C@@]2(c3ccccc31)[C@H](c1ccc(O)cc1)N1[C@H](c3ccccc3)[C@H](c3ccccc3)OC(=O)[C@H]1[C@@H]2C(=O)N1CCN(c2ncccn2)CC1
2. COCC(=C=CC[C@H](O)c1ccc(CO)o1)CCO
3. CCCCCN1CC=CC23O[C@@H]4C=CCCOC(=O)C4[C@H]2C(=O)N(CCCCCCO)[C@@H]3C1=O (stereo partly specified)
4. C=C(COC)/C(=C/C[C@H](OC(=O)c1ccncc1)c1ccccc1OCCO)c1cc(C(=O)OC)ccc1OC
5. CO[C@H]1O[C@H](CO)[C@@H](OC(=O)Nc2ccccc2)[C@H](OC(=O)c2cc3ccccc3[nH]2)[C@H]1OC(=O)c1cc2ccccc2[nH]1

A:
1. 0.109 (inactive)
2. 0.308 (inactive)
3. -0.00872 (inactive)
4. 0.492 (inactive)
5. -0.735 (inactive)

Q: Which z-score value is on record for CC(C)c1ccc(NN2C(C(O)c3ccc(F)cc3)C=CC3C(=O)N(c4ccccc4)C(=O)C32)cc1 (stereo unspecified) ?
A: -1.63 (inactive)

###

System: Noggin (protein binding on small-molecule microarray)
assaySummary: small molecules binding Noggin protein – biochemical, 635/667 nm fluorescence, primary screen (AID 1095);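 note: score merges 667 nm feature fluorescence with signal to noise over triplicate slides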
cond: 635 nm fluorescence, higher = more signal
If the reported composite z-score equals or exceeds 0.2, assign YES. If not, assign NO.

Solved entries (count: 10):
C=C[C@@H](OC)[C@H](OC(=O)Nc1ccc(OC)cc1)c1ccc(O)c(F)c1 = YES
COc1cc(OC)c(C(O)C2C=CC3C(=O)N(Cc4ccccc4)C(=O)C3N2n2cnnc2)cc1Br (configuration not stated) = YES
N#Cc1ccc(NN2C(C(O)c3ccc(Br)cc3)C=CC3C(=O)N(c4ccccc4)C(=O)C32)cc1 (configuration not stated) = NO
CCOC(=O)C[C@H]1[C@H](OC(=O)c2ccccc2-c2ccccc2)[C@@H](NC(=O)c2ccc3ccccc3n2)c2cc(OCCCO)ccc2N1C(=O)Cc1ccc(OC)cc1 = YES
COC(=O)C1=CC(CCCO)=CC(c2cccs2)N(Cc2cccc(OC(F)(F)F)c2)C=C1C(=O)OC (configuration not stated) = NO
CCCC=C(CCC)[C@@H](NC(=O)c1cccs1)c1ccc(C(=O)OC)cc1 = YES
O=C1N(Cc2ccccc2)c2ccccc2C[C@]12N=C(c1ccc(OCCCO)cc1)O[C@@H]2c1ccccc1 = YES
COCCOC(=O)N1C(=O)[C@@]2(c3cc(C#CC4=CCCCC4)ccc31)[C@H](c1ccccc1OCCO)N1[C@H](c3ccccc3)[C@H](c3ccccc3)OC(=O)[C@H]1[C@@H]2C(=O)NC[C@H](O)c1ccccc1 = YES
COCCCNC(=O)[C@@]1(Sc2ccc(C)cc2)CC(=O)N(C2Cc3ccccc3C2)[C@@H]1c1ccc(CO)cc1 = NO
O=C1NC(=O)C2C1C=CC(C(O)c1ccco1)N2Nc1ccc(Cl)cc1Cl (configuration not stated) = YES

Q: Is reported composite z-score greater than or equal to 0.2 here: C=C(/C(=C/C[C@H](OC(C)=O)c1ccc(CO)o1)c1cnc2ccccc2c1)C(C)C
A: YES

Q: Is reported composite z-score greater than or equal to 0.2 here: COc1cc2c(cc1O)C(c1ccc(CN3CCCC3)cc1)N(Cc1cc3c(cc1Br)OCO3)CC2 (configuration not stated)
A: NO

Q: Is reported composite z-score greater than or equal to 0.2 here: COC(=O)C1(CC(C)C)C=C2C(=C(c3ccccc3)C(=O)C2C)CN1 (configuration not stated)
A: NO

Q: Is reported composite z-score greater than or equal to 0.2 here: CC1CC/C=C\[C@H]2OC34C=CCN(Cc5ccccc5)C(=O)[C@H]3N(C(CO)C(C)C)C(=O)[C@@H]4C2C(=O)O1 (some centres not stated)
A: NO

Q: Is reported composite z-score greater than or equal to 0.2 here: C#Cc1cc2ccccc2oc1=O
A: NO

Q: Is reported composite z-score greater than or equal to 0.2 here: COCC(=C=CC[C@H](O)c1ccc(CO)o1)CCO
A: YES
